Data credit: paper PMC8514580

# measurementTarget: T1, CGH-1_(248–420) F261A (C. elegans, UniProt Q95YF3 248-420, F261A)
# T1 construct: Mutant of m1 made with the MutanBEST kit; source: E. coli Gold (DE3), purified (Ni-chelating resin, SEC Superdex 75)
# T1 sequence (looked up): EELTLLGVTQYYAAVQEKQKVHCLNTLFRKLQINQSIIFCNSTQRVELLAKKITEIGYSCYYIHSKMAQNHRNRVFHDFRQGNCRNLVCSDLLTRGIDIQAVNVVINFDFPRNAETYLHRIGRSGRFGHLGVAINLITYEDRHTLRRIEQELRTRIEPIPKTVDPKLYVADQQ
# assayName: ITC; ligand (peptide or CAR-1 fragment, 0.5 mM) injected into CGH-1_(248-420) or mutant (0.05 mM) in the cell; 20 °C; Buffer B (20 mM Tris-HCl pH 7.5, 150 mM NaCl); one-binding-site model
# assayContext: both partners purified
measureName: Kd (µM)
Report only the number, with the unit µM understood.

[ask] Kd lookup needed for LADPIDFDLDSDFDFAENLKLFEKDENDDQYYETVEK (Enhancer of decapping-3 (EDC-3, also called LSm16), C. elegans, FDF fragment, residues 235-271; Printed with free NH2 and COOH ends; also called EDC-3 peptide; EDC-3 FDF-FEK peptide; source: synthetic peptide (GL Biochem, Shanghai)) [EDC-3 FDF peptide (EDC-3_(235–271))] , thanks.
[reply] 1.16
